- Test system: Pseudomonas aeruginosa
- TEST_SUMMARY: Activity of Pseudomonas aeruginosa strain PS 297 metallo-beta-lactamase IMP-1 expressed in Escherichia coli BL21(DE3) assessed as substrate hydrolysis using 100 uM nitrocefin
ATTRIBUTE_MEASURED: Km (µM)
# value in µM; strip the unit string

Quick check: Km of CC1(C)S[C@@H]2[C@H](NC(=O)[C@H](C(=O)O)c3ccsc3)C(=O)N2[C@H]1C(=O)O ?
740

Next entry: C[C@@H](O)[C@H]1C(=O)N2C(C(=O)O)=C(SCCNC=N)C[C@H]12 [IMIPENEM ANHYDROUS]
39

Check CO/N=C(\C(=O)N[C@@H]1C(=O)N2C(C(=O)[O-])=C(C[N+]3(C)CCCC3)CS[C@H]12)c1csc(N)n1 too.
11

And for CO/N=C(\C(=O)N[C@@H]1C(=O)N2C(C(=O)O)=C(COC(C)=O)CS[C@H]12)c1csc(N)n1 ?
4
